- TESTED TARGET: T1, human CD3e/d (human, UniProt P07766 23-126; P04234 22-105)
- T1 construct: Bought soluble protein; also called hCD3e/d; human CD3/ed (Sino CT038-H2508H)
- T1 sequence (P07766 23-126, chain 1 of 2): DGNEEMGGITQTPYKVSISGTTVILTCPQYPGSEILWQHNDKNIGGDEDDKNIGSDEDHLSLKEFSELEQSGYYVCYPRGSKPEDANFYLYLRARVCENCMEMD
- T1 sequence (P04234 22-105, chain 2 of 2): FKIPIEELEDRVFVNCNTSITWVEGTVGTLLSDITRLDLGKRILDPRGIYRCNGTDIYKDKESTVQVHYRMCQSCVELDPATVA
- PROCEDURE SUMMARY: SPR (Carterra LSA), mAb on chip
pKd: −log10 of the molar value.
MEASUREMENT TYPE: pKd

>>> meas_value("mAb 86 (antibody, V domains shown, VH and VL only) VH: QVQLAESGGGVVQPGRSLRLSCEASGFTFSGYGMHWVRQAPGKGLDWVAIIYYDGKNKYYADSVKGRFTISRDNSKNTLYLQMNSLRAEDTAVYYCARGGGYNWFDPWGQGTLVTVSS VL: DIQMTQSPSSLSASVGDRVTITCRPSQTISKYLNWYQQKPGKAPKLLIYAASSLQSGVPSRFSGSGSGTDFTLTISSLQPEDFATYYCQQSYITPITFGRGTRLEIK")
7.09
>>> meas_value("mAb 221 (antibody, V domains shown, VH and VL only) VH: QVQLVESGGGVVQPGGSLRLSCAASGFTFSGYGMHWVRQAPGKGLEWVAIIWYNGRKTYYAESVKGRFTISRDNSKNTLSLQMNSLRVEDTAVYYCTAGQGYNWFDPWGQGTLVTVSS VL: EIVMTQSPATLSVSPGERATLSCRASQSVSSNLAWYQQKPGQAPRLLIYGASTRATGIPARFSGSGSGTEFTLTISSLQSEDFAVYYCQQFNAWPLTFGGGTKMEIK")
7.42
>>> meas_value("mAb 226 (antibody, V domains shown, VH and VL only) VH: QVQLVESGGGVVQPGRSLRLSCAASGFTFSGYGMHWVRQAPGKGLEWVAIIYYNGNNRKYADSVKGRFTISRDNSKNTVSLQMNSLRVEDTAIYYCTRGDGYNWFVTWGQGTLVTVSS VL: EIVMTQSPATLSVSPGERATLSCRASQSISSNLAWYHQKPGQAPRLLIYGASTRATGIPVRFSGSGSGTEFTLTISSLQSEDFALYYCQQYNNWPLTFGGGTKVEIK")
7.12
>>> meas_value("mAb 112 (antibody, V domains shown, VH and VL only) VH: EVQLVESGGGLVKTGGSHRLSCVASGFSFKKAWMNWVRQAPGKGLEWVGRIKRNSDGGTTDYAAPVKGRFILSRDDSKNTLYLQMNSLKTEDTAVYYCTTLDSSSWYVGYYYMDVWGKGTTVTVSS VL: DIQMTQSPSSVSASVGDRVTITCRASQDINNWLAWYQQKPGKAPKILIYTASNLQSGVPSRFSGSGSGTDFTLTISSLQPEDFATYFCQQAHSLPITFGQGTRLEIK")
7.24
>>> meas_value("mAb 166 (antibody, V domains shown, VH and VL only) VH: EVQLVESGGGLVKTGGSLRLSCVASGFSFKKAWMNWVRQAPGRGLEWVGRIKRNTDGGTTDYAAPVKGRFTLSRDDSKNMLYLQMNSLKTEDTAVYYCTTLDSSSLYVGYYYMDVWGKGTTVTVSS VL: DIQMTQSPSSVSASVGDRVTITCRASQDINNWLAWYQQKPGKAPKLLIYTASSLQSGVPSRFSGSGSGTDFTLTISSLQPEDFATYFCQQAHSLPITFGQGTRLEIT")
7.33
>>> meas_value("mAb 297 (antibody, V domains shown, VH and VL only) VH: EVQLLESGGGLVQPGGSLRLSCAASGFTFSSYAMNWVRQAPGKGLEWVSIISGGRRDDITYYAASVKGRFTISRDNSKNTLYLQMNSLRAEDTAVYYCAKMYNYYYYYIDVWGKGTTVTVSS VL: SYELTQPLSVSVALGQTAKITCGGNNIGSKDVHWYQQKPGQAPVLVIYRDSNRPSGIPERFSGSNSGNTATLTISRAQAGDEADYYCQVWDSNTAVFGGGTQLTAL")
7.18
>>> meas_value("mAb 160 (antibody, V domains shown, VH and VL only) VH: EVQLVESGGGLVQPGRSLRLSCAVSGFTFNDYTMHWVRQVPGKGLEWVSGISWNSGSIGYADSVKGRFTISRDNAKNSLYLQMNSLRAEDTALYFCAKDSSGYGHYYYYYMDVWGRGTTVTVSS VL: EIVMTQSPATLSVSPGERATLSCRASQSVRKNLAWYQQKPGQAPRLLIYGASTRATGIPARFSGSGSGTEFTLTISSLQSEDFAVYYCQLYNNWPHFGQGTRLEIK")
7.82
>>> meas_value("mAb 209 (antibody, V domains shown, VH and VL only) VH: QVQLVESGGGVVQPGRSLRLSCAASGFTFSGYGMHWVRQAPGKGLEWVAIIYYNGKKEYYADSVKGRFTVSRDNSKNMLYLQMNSLRAEDTAVYYCTRGEGYNWFDPWGQGTLVTVSS VL: EIVMTQSPATLSVSPGERATLSCRASQTVSSNLAWYQQKPGQAPRLLIYGASTRATGIPARFSGSGSGTEFTLTISSLQSEDFAVYYCKQYNNRPLTFGGGTKVEIK")
8.26
>>> meas_value("mAb 158 (antibody, V domains shown, VH and VL only) VH: EVQLVESGGGLVQPGRSLRLSCAASGFTFADYTMHWVRQVPGKGLEWVSGISWNSGSVDYADSVKGRFTISRDNAKKTLYLQMNSLRAEDTALYYCAKDSSGYGHYYFYYLDVWGKGTTVTVSS VL: EIVMTQSPATLSVSPGERATLSCRATQSVSSNLAWYQQKPGQAPRLLIYSTSTRATGIPARFSGSRSGTEFTLTISSLQSEDSAVYYCQQYNNWPHFGQGTRLEIK")
7.99
>>> meas_value("mAb 122 (antibody, V domains shown, VH and VL only) VH: EVQLVESGGGLVKTGGSLRLSCVASGFSFKKAWMNWVRQAPGKGLEWVGRIKRNTDGGTADYAAPVKGRFTLSRDDSKKTLYLQMNSLKTEDTAVYYCTTLDSSSRYVGYYYMDVWGKGTTVTVSS VL: DIQMTQSPSSVSASVGDRVIITCRASQDINNWLAWYQQKPGKVPKLLIYTASSLQSGVPSRFSGSGSGTDFTLTIGSLQPEDFATYYCQQAHSLPITFGQGTRLEIK")
7.47
